# MEASUREMENT TARGET: COX-2 (purified enzyme from ewe placenta) (Ovis aries)
# Construct: purified enzyme from ewe placenta; from tissue; host or cells: ewe placenta
# Sequence (P79208 17-603): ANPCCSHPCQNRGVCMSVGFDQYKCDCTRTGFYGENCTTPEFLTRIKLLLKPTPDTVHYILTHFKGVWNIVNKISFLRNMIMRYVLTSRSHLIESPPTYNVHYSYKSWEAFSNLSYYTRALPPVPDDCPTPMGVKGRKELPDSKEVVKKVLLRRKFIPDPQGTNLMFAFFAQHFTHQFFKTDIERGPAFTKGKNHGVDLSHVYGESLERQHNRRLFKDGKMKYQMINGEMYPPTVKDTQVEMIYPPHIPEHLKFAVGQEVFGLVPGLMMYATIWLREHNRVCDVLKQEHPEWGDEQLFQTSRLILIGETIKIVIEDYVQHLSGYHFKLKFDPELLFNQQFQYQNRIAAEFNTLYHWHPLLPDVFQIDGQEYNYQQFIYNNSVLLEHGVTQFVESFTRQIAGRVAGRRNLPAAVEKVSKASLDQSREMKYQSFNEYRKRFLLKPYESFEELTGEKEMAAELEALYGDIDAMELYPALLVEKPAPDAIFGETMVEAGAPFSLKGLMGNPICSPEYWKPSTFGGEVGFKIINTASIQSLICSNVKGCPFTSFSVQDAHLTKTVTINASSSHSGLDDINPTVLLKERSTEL
# TEST SUMMARY: Inhibition of COX-2 enzymatic activity (PGE2 determined by EIA)
# Type: biochemical
# TEST PARAMETERS: 10^-5 M; arachidonic acid 4 μM; mean ± standard deviation, 4 determinations
REPORTED METRIC: inhibition at 10 µM
# include the unit after the value

Enquiry: Hello, I am looking for reported inhibition at 10 µM with COX-2 (purified enzyme from ewe placenta) (Ovis aries) for Cc1ccc(-n2c(-c3ccc(S(C)(=O)=O)cc3)cc3ccccc32)cc1 [Example 17] . Could you help?
Return: 89%

Enquiry: Form field - read-out: inhibition at 10 µM; system: COX-2 (purified enzyme from ewe placenta) (Ovis aries); submitted item: CS(=O)(=O)c1ccc(-c2cc3ccccc3n2-c2ccc(Cl)cc2)cc1 [Example 19]
Return: 95%

Enquiry: # get_value(readout= inhibition at 10 µM, system= COX-2 (purified enzyme from ewe placenta) (Ovis aries)) for CS(=O)(=O)c1ccc(-c2cc3ccccc3n2-c2ccc(F)cc2)cc1 [Example 16]
Return: 83%

Enquiry: Provide the documented inhibition at 10 µM with COX-2 (purified enzyme from ewe placenta) (Ovis aries) as the system for CS(=O)(=O)c1ccc(-c2cc3ccccc3n2-c2ccccc2)cc1 [Example 18]
Return: 88%

# credit: patent US5723485A
